Where these numbers come from: ChEMBL document CHEMBL2321678

Test: Inhibition of caspase-like activity of rabbit 26s proteasome beta 1 subunit assessed as hydrolysis of Acn-LPnLD-amc fluorogenic substrate preincubated for 30 mins followed by substrate addition measured for 30 mins by fluorescence plate reader analysis
Set-up: species or system Oryctolagus cuniculus

[
  {
    "structure.string": "CC(=O)N[C@@H](CC(C)C)C(=O)N[C@@H](CC(C)C)C(=O)N[C@@H](CCCNC(=N)N)C(=O)[C@@]1(C)CO1",
    "unit.abbrev": "µM",
    "qualifying.sign": ">",
    "IC50": 30
  },
  {
    "structure.string": "CC(C)C[C@H](NC(=O)[C@H](Cc1ccc(N)cc1)NC(=O)[C@H](Cc1ccccc1)N=[N+]=[N-])C(=O)N[C@H](/C=C/S(C)(=O)=O)Cc1ccc(CN)cc1",
    "unit.abbrev": "µM",
    "qualifying.sign": "=",
    "IC50": 30
  },
  {
    "structure.string": "CC(C)C[C@H](NC(=O)[C@H](Cc1ccc(CN)cc1)NC(=O)[C@H](Cc1ccccc1)N=[N+]=[N-])C(=O)N[C@H](/C=C/S(C)(=O)=O)Cc1ccc(N)cc1",
    "unit.abbrev": "µM",
    "qualifying.sign": ">",
    "IC50": 30
  },
  {
    "structure.string": "CC(C)C[C@H](NC(=O)[C@H](Cc1ccccc1)NC(=O)[C@H](Cc1ccccc1)N=[N+]=[N-])C(=O)N[C@H](/C=C/S(C)(=O)=O)Cc1ccccc1",
    "unit.abbrev": "µM",
    "qualifying.sign": ">",
    "IC50": 30
  },
  {
    "structure.string": "CC(C)C[C@H](NC(=O)[C@H](Cc1ccccc1)N=[N+]=[N-])C(=O)N[C@@H](CC(C)C)C(=O)N[C@H](/C=C/S(C)(=O)=O)Cc1ccc(N)cc1",
    "unit.abbrev": "µM",
    "qualifying.sign": "=",
    "IC50": 23
  },
  {
    "structure.string": "CC(C)C[C@H](NC(=O)[C@H](Cc1ccncc1)NC(=O)[C@H](Cc1ccccc1)N=[N+]=[N-])C(=O)N[C@H](/C=C/S(C)(=O)=O)Cc1ccc(CN)cc1",
    "unit.abbrev": "µM",
    "qualifying.sign": "=",
    "IC50": 30
  }
]

* * *

Biological target: Proteasome Macropain subunit MB1 (Homo sapiens, UniProt P28074)
Sequence (P28074 whole entry): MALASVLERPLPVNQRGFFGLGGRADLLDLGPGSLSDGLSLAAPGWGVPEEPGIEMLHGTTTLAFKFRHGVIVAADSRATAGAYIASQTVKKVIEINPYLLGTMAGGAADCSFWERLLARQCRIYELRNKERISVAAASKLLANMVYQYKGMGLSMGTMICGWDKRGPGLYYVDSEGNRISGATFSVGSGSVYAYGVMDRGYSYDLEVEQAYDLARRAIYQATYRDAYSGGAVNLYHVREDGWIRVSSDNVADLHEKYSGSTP
Test: Inhibition of chymotrypsin-like activity of proteasome in human NCI-H929 cells after 6 hrs by proteasomeGlo assay
Assay type: cell-based
reported.endpoint: IC50

[
  {
    "structure.string": "Cc1c(O)cccc1C(=O)N[C@H](C(=O)N[C@@H](CO)C(=O)N[C@@H](CCCNC(=N)N)C(=O)[C@@]1(C)CO1)C(C)C",
    "reported.endpoint": "IC50",
    "readout.value": "> 30 µM"
  }
]

* * *

Organism: Oryctolagus cuniculus
Assay: Selectivity ratio of IC50 for chymotrypsin-like activity of rabbit 26s proteasome beta 5 subunit to IC50 for trypsin-like activity of rabbit 26s proteasome beta 2 subunit
Below, each of the compounds is paired with its reported Ratio IC50 value.

[
  {
    "structure.string": "Cc1c(O)cccc1C(=O)N[C@H](C(=O)N[C@@H](CO)C(=O)N[C@@H](CCCNC(=N)N)C(=O)[C@@]1(C)CO1)C(C)C",
    "Ratio IC50": 267
  },
  {
    "structure.string": "CC(C)C[C@H](NC(=O)[C@H](Cc1ccccc1)N=[N+]=[N-])C(=O)N[C@@H](CC(C)C)C(=O)N[C@@H](Cc1ccc(N)cc1)C(=O)[C@@]1(C)CO1",
    "Ratio IC50": 0.0056
  },
  {
    "structure.string": "CC(C)C[C@H](NC(=O)[C@H](Cc1ccc(CN)cc1)NC(=O)[C@H](Cc1ccccc1)N=[N+]=[N-])C(=O)N[C@H](/C=C/S(C)(=O)=O)Cc1ccc(N)cc1",
    "Ratio IC50": 59
  }
]

* * *

Species: Homo sapiens
Assay: Selectivity ratio of IC50 for chymotrypsin-like activity of human proteasome beta 5 subunit to IC50 for trypsin-like activity of human proteasome beta 2 subunit

[
  {
    "structure.string": "CC(C)C[C@@H](/C=C/S(C)(=O)=O)NC(=O)[C@H](CC(C)C)NC(=O)[C@H](Cc1ccc(CN)cc1)NC(=O)[C@H](Cc1ccccc1)N=[N+]=[N-]",
    "Ratio IC50": 2.5
  },
  {
    "structure.string": "CC(C)C[C@@H](/C=C/S(C)(=O)=O)NC(=O)[C@H](CC(C)C)NC(=O)[C@H](Cc1ccncc1)NC(=O)[C@H](Cc1ccccc1)N=[N+]=[N-]",
    "Ratio IC50": 0.029
  },
  {
    "structure.string": "CC(C)C[C@@H](/C=C/S(C)(=O)=O)NC(=O)[C@H](CC(C)C)NC(=O)[C@H](Cc1ccc(N)cc1)NC(=O)[C@H](Cc1ccccc1)N=[N+]=[N-]",
    "Ratio IC50": 0.034
  }
]

* * *

Biological target: Proteasome Macropain subunit MB1 (Homo sapiens, UniProt P28074)
Assay: Inhibition of chymotrypsin-like activity of proteasome in human RPMI-8226 cells after 6 hrs by proteasomeGlo assay
Format: cell-based
pIC50: −log10 of the molar value.
reported.endpoint: pIC50

[
  {
    "structure.string": "Cc1c(O)cccc1C(=O)N[C@H](C(=O)N[C@@H](CO)C(=O)N[C@@H](CCCNC(=N)N)C(=O)[C@@]1(C)CO1)C(C)C",
    "reported.endpoint": "pIC50",
    "readout.value": "< 4.52"
  }
]

* * *

Species: Oryctolagus cuniculus
Test: Selectivity ratio of IC50 for chymotrypsin-like activity of rabbit 26s proteasome beta 5 subunit to IC50 for trypsin-like activity of rabbit 26s proteasome beta 2 subunit
The reader will find reported Ratio IC50 values listed item by item below.
reported.endpoint: Ratio IC50

[
  {
    "structure.string": "CC(C)C[C@H](NC(=O)[C@H](Cc1ccc(CN)cc1)NC(=O)[C@H](Cc1ccccc1)N=[N+]=[N-])C(=O)N[C@H](/C=C/S(C)(=O)=O)Cc1ccncc1",
    "qualifying.sign": "=",
    "readout.value": 9.1
  },
  {
    "structure.string": "CC(C)C[C@@H](/C=C/S(C)(=O)=O)NC(=O)[C@H](CC(C)C)NC(=O)[C@H](Cc1ccc(CN)cc1)NC(=O)[C@H](Cc1ccccc1)N=[N+]=[N-]",
    "qualifying.sign": "=",
    "readout.value": 0.057
  },
  {
    "structure.string": "CC(C)C[C@H](NC(=O)[C@H](Cc1ccccc1)N=[N+]=[N-])C(=O)N[C@@H](CC(C)C)C(=O)N[C@H](/C=C/S(C)(=O)=O)Cc1ccc(N)cc1",
    "qualifying.sign": "=",
    "readout.value": 0.36
  },
  {
    "structure.string": "CC(C)C[C@@H](/C=C/S(C)(=O)=O)NC(=O)[C@H](CC(C)C)NC(=O)[C@H](Cc1ccncc1)NC(=O)[C@H](Cc1ccccc1)N=[N+]=[N-]",
    "qualifying.sign": "=",
    "readout.value": 0.00021
  },
  {
    "structure.string": "Cc1c(O)cccc1C(=O)N[C@H](C(=O)N[C@@H](CO)C(=O)N[C@H](/C=C/S(C)(=O)=O)Cc1ccc(N)cc1)C(C)C",
    "qualifying.sign": "<",
    "readout.value": 0.0067
  }
]

* * *

Test: Inhibition of chymotrypsin-like activity of yeast 20s proteasome beta 5 subunit assessed as hydrolysis of Suc-LLVY-amc fluorogenic substrate after 15 mins by fluorescence spectrophotometry
Set-up: species or system Saccharomyces cerevisiae
pIC50: −log10 of the molar value.
reported.endpoint: pIC50

[
  {
    "structure.string": "Cc1c(O)cccc1C(=O)N[C@H](C(=O)N[C@@H](CO)C(=O)N[C@H](/C=C/S(C)(=O)=O)Cc1ccc(CN)cc1)C(C)C",
    "readout.value": 4.71
  }
]

* * *

Experiment: Inhibition of caspase-like activity of rabbit 26s proteasome beta 1 subunit assessed as hydrolysis of Acn-LPnLD-amc fluorogenic substrate preincubated for 30 mins followed by substrate addition measured for 30 mins by fluorescence plate reader analysis
Design: species or system Oryctolagus cuniculus
Here, each record is paired with measured IC50 data.
reported.endpoint: IC50

[
  {
    "structure.string": "CC(C)C[C@H](NC(=O)[C@H](Cc1ccccc1)N=[N+]=[N-])C(=O)N[C@@H](CC(C)C)C(=O)N[C@H](/C=C/S(C)(=O)=O)Cc1ccncc1",
    "readout.value": "> 30 µM"
  },
  {
    "structure.string": "CC(C)C[C@H](NC(=O)[C@H](Cc1ccccc1)N=[N+]=[N-])C(=O)N[C@@H](CC(C)C)C(=O)N[C@@H](Cc1ccc(CN)cc1)C(=O)[C@@]1(C)CO1",
    "readout.value": "11 µM"
  },
  {
    "structure.string": "CC(C)C[C@H](NC(=O)[C@H](Cc1ccccc1)N=[N+]=[N-])C(=O)N[C@@H](CC(C)C)C(=O)N[C@@H](Cc1ccc(N)cc1)C(=O)[C@@]1(C)CO1",
    "readout.value": "> 30 µM"
  },
  {
    "structure.string": "CC(C)C[C@H](NC(=O)[C@H](Cc1ccc(CN)cc1)NC(=O)[C@H](Cc1ccccc1)N=[N+]=[N-])C(=O)N[C@H](/C=C/S(C)(=O)=O)Cc1ccncc1",
    "readout.value": "> 30 µM"
  },
  {
    "structure.string": "CC(C)C[C@@H](/C=C/S(C)(=O)=O)NC(=O)[C@H](CC(C)C)NC(=O)[C@H](Cc1ccc(N)cc1)NC(=O)[C@H](Cc1ccccc1)N=[N+]=[N-]",
    "readout.value": "> 30 µM"
  },
  {
    "structure.string": "CC(=O)N[C@@H](CCCNC(=N)N)C(=O)N[C@@H](CC(C)C)C(=O)N[C@@H](CCCNC(=N)N)C(=O)[C@@]1(C)CO1",
    "readout.value": "> 30 µM"
  },
  {
    "structure.string": "Cc1c(O)cccc1C(=O)N[C@H](C(=O)N[C@@H](CO)C(=O)N[C@H](/C=C/S(C)(=O)=O)Cc1ccc(N)cc1)C(C)C",
    "readout.value": "> 30 µM"
  },
  {
    "structure.string": "Cc1c(O)cccc1C(=O)N[C@H](C(=O)N[C@@H](CO)C(=O)N[C@H](/C=C/S(C)(=O)=O)Cc1ccc(CN)cc1)C(C)C",
    "readout.value": "21 µM"
  },
  {
    "structure.string": "Cc1c(O)cccc1C(=O)N[C@H](C(=O)N[C@@H](CO)C(=O)N[C@@H](CCCNC(=N)N)C(=O)[C@@]1(C)CO1)C(C)C",
    "readout.value": "80 µM"
  },
  {
    "structure.string": "CC(C)C[C@@H](/C=C/S(C)(=O)=O)NC(=O)[C@H](CC(C)C)NC(=O)[C@H](Cc1ccncc1)NC(=O)[C@H](Cc1ccccc1)N=[N+]=[N-]",
    "readout.value": "> 30 µM"
  },
  {
    "structure.string": "CC(C)C[C@H](NC(=O)[C@H](Cc1ccccc1)N=[N+]=[N-])C(=O)N[C@@H](CC(C)C)C(=O)N[C@H](/C=C/S(C)(=O)=O)CCCCN",
    "readout.value": "> 30 µM"
  }
]
